Origin of measurements: ChEMBL document CHEMBL5331130

System: Burkholderia pseudomallei
Experiment: Inhibition of Burkholderia pseudomallei Mip PPIase activity assessed as remaining activity using Suc-ALPF-pNA substrate measured at 400 nM by protease coupled assay relative to control
As shown below, each of these molecules has a reported Activity value.

Example entries and their recorded answers appear below.
{"columns": ["molecule", "quantityMeasured", "valueMeasured"],
 "data": [
  ["O=C(O[C@@H](Cc1ccccc1)C(=O)NCc1cccnc1)C1CCCCN1S(=O)(=O)Cc1ccccc1 (mixture of isomers)", "Activity", "15.9%"],
  ["O=C(NCc1cccnc1)[C@H](Cc1ccccc1)OC(=O)[C@H]1CCCCN1S(=O)(=O)c1ccccc1", "Activity", "147%"],
  ["O=C(NCc1cccnc1)C(CCc1ccccc1)COC(=O)[C@@H]1CCCCN1S(=O)(=O)Cc1ccccc1 (mixture of isomers)", "Activity", "28.7%"],
  ["CC[C@H](C)[C@H](OC(=O)C1CCCCN1S(=O)(=O)Cc1ccccc1)C(=O)NCc1cccnc1 (mixture of isomers)", "Activity", "16.8%"]
]}

Please find the next molecule below.
Please report Activity with Burkholderia pseudomallei for item O=C(NCc1ccc[n+]([O-])c1)[C@H](Cc1ccc(F)cc1)NC(=O)[C@@H]1CCCCN1S(=O)(=O)Cc1ccc(F)cc1 .
40.9%

* * *

Assay: Binding affinity to Burkholderia pseudomallei Mip measured after 1 hr by fluorescence polarization assay
Details: read-out: Ki
quantityMeasured: log10 of Ki (log10 of the value in nM)
The common logarithm of Ki in nM is what is listed.

Example entries and their recorded answers appear below.
{"columns": ["compound", "log10 of Ki"],
 "data": [
  ["COCCOc1cc(OCCOC)cc(C(=O)NCCOC(=O)[C@@H]2CCCCN2S(=O)(=O)Cc2ccccc2)c1", 3.03],
  ["O=C(NCc1cccnc1)[C@@H](NC(=O)[C@@H]1CCCCN1S(=O)(=O)Cc1ccccc1)c1ccc(F)cc1", 1.86],
  ["C#CCOc1ccc(C[C@H](NC(=O)[C@@H]2CCCCN2S(=O)(=O)Cc2ccc(F)cc2)C(=O)NCc2cccnc2)cc1", 1.54]
]}

Quick one: give measured log10 of Ki for O=C(NCc1cccnc1)[C@@H](Cc1ccccc1)OC(=O)[C@@H]1CCCCN1S(=O)(=O)c1ccccc1
4.61

Quick one: give measured log10 of Ki for CC(C)[C@H](OC(=O)C1CCCCN1S(=O)(=O)Cc1ccccc1)C(=O)NCc1cccnc1 (mixture of isomers)
3.03

Quick one: give measured log10 of Ki for O=C(NCc1cccnc1)[C@H](Cc1ccccc1)OC(=O)[C@@H]1CCCCN1S(=O)(=O)c1ccccc1
2.09

Quick one: give measured log10 of Ki for O=C(O[C@@H](Cc1ccccc1)C(=O)NCc1cccnc1)C1CCCCN1S(=O)(=O)Cc1ccccc1 (mixture of isomers)
1.69

Quick one: give measured log10 of Ki for O=C(NCc1cccnc1)[C@H](CCc1ccccc1)COC(=O)[C@@H]1CCCCN1S(=O)(=O)Cc1ccccc1
3.53

* * *

Test system: Neisseria meningitidis
Assay: Inhibition of Neisseria meningitidis Mip NEIS0004 assessed as remaining activity using Suc-ALPF-pNA substrate measured at 400 nM by protease coupled assay relative to control
quantityMeasured: Activity

{"columns": ["compound", "Activity"],
 "data": [
  ["O=C(NCc1cccnc1)[C@H](Cc1ccccc1)OC(=O)[C@@H]1CCCCN1S(=O)(=O)c1ccccc1", "6.7%"],
  ["O=C(NCc1ccc[n+]([O-])c1)[C@H](Cc1ccc(F)cc1)NC(=O)[C@@H]1CCCCN1S(=O)(=O)Cc1ccc(F)cc1", "24%"],
  ["CC(C)C[C@H](OC(=O)[C@@H]1CCCCN1S(=O)(=O)Cc1ccccc1)C(=O)NCc1cccnc1", "3.8%"],
  ["O=C(NCc1cccnc1)[C@@H](NC(=O)[C@@H]1CCCCN1S(=O)(=O)Cc1ccccc1)c1ccc(F)cc1", "27.2%"],
  ["COCCOc1cc(OCCOC)cc(C(=O)NCCOC(=O)[C@@H]2CCCCN2S(=O)(=O)Cc2ccccc2)c1", "88.9%"]
]}

Quick one: give measured Activity for O=C(NCc1cccnc1)[C@@H](Cc1ccccc1)NC(=O)[C@@H]1CCCCN1S(=O)(=O)Cc1ccccc1
45.4%

Quick one: give measured Activity for O=C(NCc1cccnc1)[C@H](Cc1ccc(F)cc1)NC(=O)[C@@H]1CCCCN1S(=O)(=O)Cc1ccc(F)cc1
37.2%

* * *

System: Neisseria meningitidis
Assay: Antimicrobial activity against Neisseria meningitidis infected in mouse RAW264.7 cells assessed as reduction in bacteria-induced cytotoxicity at 50 uM after 24 hrs by lactate dehydrogenase release assay relative to control
Format: functional
Design: scale not given: the % may be the effect or the level left
1 if Activity is below 40%. -1 if not; exact matches included in -1.

Below, 5 molecules whose answers are already recorded.
{"columns": ["molecule", "className"],
 "data": [
  ["CC(C)C[C@H](NC(=O)[C@@H]1CCCCN1S(=O)(=O)Cc1ccc(F)cc1)C(=O)NCc1ccc[n+]([O-])c1", -1],
  ["O=C(NCc1cccnc1)[C@H](CCc1ccccc1)NC(=O)[C@@H]1CCCCN1S(=O)(=O)Cc1ccccc1", 1],
  ["O=C(NCc1cccnc1)[C@@H](CCc1ccccc1)COC(=O)[C@@H]1CCCCN1S(=O)(=O)Cc1ccccc1", 1],
  ["CC(C)[C@H](OC(=O)C1CCCCN1S(=O)(=O)Cc1ccccc1)C(=O)NCc1cccnc1 (mixture of isomers)", -1],
  ["O=C(NCc1ccc[n+]([O-])c1)[C@H](Cc1ccc(F)cc1)NC(=O)[C@@H]1CCCCN1S(=O)(=O)Cc1ccc(F)cc1", -1]
]}

Say whether its Activity is strictly beneath 40%. Entry: O=C(NCc1cccnc1)[C@H](Cc1ccc(F)cc1)NC(=O)[C@@H]1CCCCN1S(=O)(=O)Cc1ccc(F)cc1
-1

Say whether its Activity is strictly beneath 40%. Entry: O=C(NCc1cccnc1)[C@H](CCc1ccccc1)COC(=O)[C@@H]1CCCCN1S(=O)(=O)Cc1ccccc1
-1

Say whether its Activity is strictly beneath 40%. Entry: O=C(NCc1cccnc1)[C@H](Cc1ccccc1)OC(=O)[C@H]1CCCCN1S(=O)(=O)c1ccccc1
1

Say whether its Activity is strictly beneath 40%. Entry: O=C(NCc1cccnc1)C(CCc1ccccc1)COC(=O)[C@@H]1CCCCN1S(=O)(=O)Cc1ccccc1 (mixture of isomers)
1

* * *

Test system: Neisseria meningitidis
Experiment: Antimicrobial activity against Neisseria meningitidis infected in mouse RAW264.7 cells assessed as reduction in bacteria-induced cytotoxicity at 50 uM after 24 hrs by lactate dehydrogenase release assay relative to control
Format: functional
Design: scale not given: the % may be the effect or the level left
quantityMeasured: Activity
Please give the number followed by its unit.

Example entries and their recorded answers appear below.
{"columns": ["molecule", "Activity"],
 "data": [
  ["O=C(NCc1cccnc1)[C@@H](NC(=O)[C@@H]1CCCCN1S(=O)(=O)Cc1ccc(F)cc1)c1ccc(F)cc1", "51.4%"],
  ["O=C(NCc1cccnc1)[C@@H](Cc1ccccc1)NC(=O)[C@@H]1CCCCN1S(=O)(=O)Cc1ccccc1", "60.8%"],
  ["O=C(O[C@@H](Cc1ccccc1)C(=O)NCc1cccnc1)C1CCCCN1S(=O)(=O)Cc1ccccc1 (mixture of isomers)", "38.4%"]
]}

Please find the next molecule below.
Quick one: give measured Activity for C#CCOc1ccc(C[C@H](NC(=O)[C@@H]2CCCCN2S(=O)(=O)Cc2ccc(F)cc2)C(=O)NCc2cccnc2)cc1
45.7%

* * *

Tested on: Burkholderia pseudomallei
Assay: Inhibition of Burkholderia pseudomallei Mip PPIase activity assessed as remaining activity using Suc-ALPF-pNA substrate measured at 400 nM by protease coupled assay relative to control
As shown below, each of these compounds has a reported Activity value.

Example entries and their recorded answers appear below.
{"columns": ["compound", "Activity"],
 "data": [
  ["O=C(NCc1cccnc1)[C@@H](NC(=O)[C@@H]1CCCCN1S(=O)(=O)Cc1ccc(F)cc1)c1ccc(F)cc1", "13.5%"],
  ["O=C(NCc1cccnc1)[C@H](Cc1ccc(F)cc1)NC(=O)[C@@H]1CCCCN1S(=O)(=O)Cc1ccc(F)cc1", "12.5%"],
  ["CC(C)C[C@H](NC(=O)[C@@H]1CCCCN1S(=O)(=O)Cc1ccc(F)cc1)C(=O)NCc1cccnc1", "5.8%"],
  ["O=C(NCc1cccnc1)C(CCc1cccnc1)OC(=O)[C@@H]1CCCCN1S(=O)(=O)c1ccccc1 (mixture of isomers)", "32.6%"],
  ["O=C(N[C@@H](Cc1ccccc1)C(=O)NCc1ccc[n+]([O-])c1)C1CCCCN1S(=O)(=O)Cc1ccccc1 (mixture of isomers)", "51.9%"],
  ["O=C(NCc1cccnc1)[C@H](CCc1ccccc1)COC(=O)[C@@H]1CCCCN1S(=O)(=O)Cc1ccccc1", "101%"]
]}

Please report Activity with Burkholderia pseudomallei for item O=C(NCc1cccnc1)[C@@H](CCc1ccccc1)COC(=O)[C@@H]1CCCCN1S(=O)(=O)Cc1ccccc1 .
14.8%

Please report Activity with Burkholderia pseudomallei for item O=C(NCc1cccnc1)C(CCc1ccccc1)COC(=O)[C@H]1CCCCN1S(=O)(=O)Cc1ccccc1 (mixture of isomers) .
140%

Please report Activity with Burkholderia pseudomallei for item O=C(NCc1cccnc1)[C@@H](NC(=O)[C@@H]1CCCCN1S(=O)(=O)Cc1ccccc1)c1ccc(F)cc1 .
11.3%

Please report Activity with Burkholderia pseudomallei for item COCCOc1cc(OCCOC)cc(C(=O)NCCOC(=O)[C@@H]2CCCCN2S(=O)(=O)Cc2ccccc2)c1 .
52.3%

Please report Activity with Burkholderia pseudomallei for item O=C(NCc1cccnc1)[C@H](Cc1ccccc1)NC(=O)[C@@H]1CCCCN1S(=O)(=O)Cc1ccccc1 .
23.7%

Please report Activity with Burkholderia pseudomallei for item CC(C)C[C@H](OC(=O)C1CCCCN1S(=O)(=O)Cc1ccccc1)C(=O)NCc1cccnc1 (mixture of isomers) .
17.4%

Please report Activity with Burkholderia pseudomallei for item O=C(O[C@H](Cc1ccccc1)C(=O)NCc1cccnc1)[C@H]1CCCCN1S(=O)(=O)c1ccccc1 .
155%

Please report Activity with Burkholderia pseudomallei for item C#CCOc1ccc(C[C@H](NC(=O)[C@@H]2CCCCN2S(=O)(=O)Cc2ccc(F)cc2)C(=O)NCc2cccnc2)cc1 .
4.4%

Please report Activity with Burkholderia pseudomallei for item O=C(NCc1cccnc1)[C@H](CCc1ccccc1)NC(=O)[C@@H]1CCCCN1S(=O)(=O)Cc1ccccc1 .
17.6%
